targetOrSystem: p97 ATPase WT (Homo sapiens (Human))
Sequence (P55072 whole entry): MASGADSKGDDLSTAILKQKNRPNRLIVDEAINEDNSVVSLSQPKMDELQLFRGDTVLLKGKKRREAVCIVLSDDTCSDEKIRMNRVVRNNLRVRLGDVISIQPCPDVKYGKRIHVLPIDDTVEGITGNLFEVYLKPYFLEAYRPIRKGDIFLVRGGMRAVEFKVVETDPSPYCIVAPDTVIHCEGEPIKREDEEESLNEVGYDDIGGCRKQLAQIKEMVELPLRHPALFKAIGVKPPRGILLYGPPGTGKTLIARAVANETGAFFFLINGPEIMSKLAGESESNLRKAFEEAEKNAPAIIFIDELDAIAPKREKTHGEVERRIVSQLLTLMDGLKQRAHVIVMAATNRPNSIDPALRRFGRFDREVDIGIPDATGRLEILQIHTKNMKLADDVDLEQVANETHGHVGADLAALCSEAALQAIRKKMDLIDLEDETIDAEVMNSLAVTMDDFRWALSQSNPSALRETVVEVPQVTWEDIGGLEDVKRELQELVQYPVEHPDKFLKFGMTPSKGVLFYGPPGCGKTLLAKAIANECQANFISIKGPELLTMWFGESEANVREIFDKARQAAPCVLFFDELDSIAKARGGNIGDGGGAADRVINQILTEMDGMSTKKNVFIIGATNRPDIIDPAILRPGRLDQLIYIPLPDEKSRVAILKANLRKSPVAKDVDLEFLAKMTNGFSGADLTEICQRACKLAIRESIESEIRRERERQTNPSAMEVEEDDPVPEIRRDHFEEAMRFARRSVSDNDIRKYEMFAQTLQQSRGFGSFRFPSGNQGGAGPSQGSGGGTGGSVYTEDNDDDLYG
testDetails: p97 ADP-Glo assay
Format: biochemical
reportedConditions: p97 ADP-Glo assay; read-out: inhibitor of the AAA ATPase (potency in words)
pIC50: −log10 of the molar value.
parameterMeasured: pIC50

compound	experimentalValue
CC(C)N1CCN(CCNC2CCN(c3cccc(-c4cc5cc([N+](=O)[O-])ccc5[nH]4)c3)CC2)CC1 [Compound 23]	7.40

====

targetOrSystem: p97 ATPase WT (Homo sapiens (Human))
testDetails: p97 ADP-Glo assay
Format: biochemical
reportedConditions: Table 3; read-out: ADPGlo IC50
Label MET when IC50 is strictly below 400 nM; at or above that, label NOT MET.

compound	groupLabel
CN1[C@@H]2CCC[C@H]1C[C@@H](NC1CCN(c3cccc(-c4cc5ccccc5[nH]4)c3)CC1)C2	NOT MET
c1cc(-c2cc3ccccc3[nH]2)cc(N2CCC(NCCN3CCCNCC3)CC2)c1	MET
CC(C)N1CCN(CCNC2CCN(c3cccc(-c4cc5ccc(F)cc5[nH]4)c3)CC2)CC1	NOT MET
CC(C)N1CCN(CCNC2CCN(c3cccc(-c4cc5cc([N+](=O)[O-])ccc5[nH]4)c3)CC2)CC1 [drawing 222]	MET
CC(C)N1CCN(CCNC2CCN(c3cccc(-c4cc5cc(F)ccc5[nH]4)c3)CC2)CC1	MET
CN1CCN(C(C)(C)CNC2CCN(c3cccc(-c4cc5ccccc5[nH]4)c3)CC2)CC1	NOT MET
c1cncc(CNC2CCN(c3cccc(-c4cc5ccccc5[nH]4)c3)CC2)c1	NOT MET
N#Cc1ccc2[nH]c(-c3cccc(N4CCC(NCc5cccnc5)CC4)c3)cc2c1	MET
CC(C)N1CCN(CCOC2CCN(c3cccc(-c4cc5ccccc5[nH]4)c3)CC2)CC1	NOT MET
